// reported RXRα Homodimer Cotransfection Assay Agonist Efficacy (%) for each item listed
Target: RXRα homodimer (RXR:RXR) (Homo sapiens, UniProt P19793)
Sequence (P19793 whole entry): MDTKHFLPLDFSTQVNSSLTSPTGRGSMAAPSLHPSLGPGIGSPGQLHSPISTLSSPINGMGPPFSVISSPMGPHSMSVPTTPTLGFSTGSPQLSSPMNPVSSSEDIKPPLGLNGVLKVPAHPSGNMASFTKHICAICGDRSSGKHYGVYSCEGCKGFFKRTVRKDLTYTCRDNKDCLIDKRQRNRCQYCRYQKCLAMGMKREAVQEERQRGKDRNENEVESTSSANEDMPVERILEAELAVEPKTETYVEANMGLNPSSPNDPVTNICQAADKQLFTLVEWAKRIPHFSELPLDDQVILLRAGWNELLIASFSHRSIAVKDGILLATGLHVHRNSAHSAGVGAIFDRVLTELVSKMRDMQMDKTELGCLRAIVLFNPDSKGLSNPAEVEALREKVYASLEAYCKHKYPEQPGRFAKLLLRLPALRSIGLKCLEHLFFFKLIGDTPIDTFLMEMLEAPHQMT
Experiment: RXR homodimer co-transfection assay in CV-1 cells
Type: cell-based
Conditions: Table 3 c4; in presence of 3.2×10^−8 M LGD1069
property: RXRα Homodimer Cotransfection Assay Agonist Efficacy (%)

>  <chemical smiles>
CCCCCCCOc1c(/C(C)=C/C=C/C(C)=C/C(=O)O)cc(C(C)(C)C)cc1C(C)(C)C

>  <measured target>
RXRα homodimer (RXR:RXR) (Homo sapiens, UniProt P19793)

>  <observed measurement>
94

$$$$
>  <chemical smiles>
CCOc1c(/C(C)=C/C=C/C(C)=C/C(=O)O)cc(C(C)(C)C)cc1C(C)(C)C

>  <measured target>
RXRα homodimer (RXR:RXR) (Homo sapiens, UniProt P19793)

>  <observed measurement>
62

$$$$
>  <chemical smiles>
CCCOc1c(/C(C)=C/C=C/C(C)=C/C(=O)O)cc(C(C)(C)C)cc1C(C)(C)C

>  <measured target>
RXRα homodimer (RXR:RXR) (Homo sapiens, UniProt P19793)

>  <observed measurement>
90

$$$$
>  <chemical smiles>
CCCCOc1c(/C(C)=C/C=C/C(C)=C/C(=O)O)cc(C(C)(C)C)cc1C(C)(C)C

>  <measured target>
RXRα homodimer (RXR:RXR) (Homo sapiens, UniProt P19793)

>  <observed measurement>
92

$$$$
>  <chemical smiles>
COc1c(/C(C)=C/C=C/C(C)=C/C(=O)O)cc(C(C)(C)C)cc1C(C)(C)C

>  <measured target>
RXRα homodimer (RXR:RXR) (Homo sapiens, UniProt P19793)

>  <observed measurement>
7

$$$$
